# measurement-notes: log P (pH2.3)
# Assay type: physicochemical
# stated-conditions: method [b]: LC-MS, acidic range, pH 2.7, 0.1% aqueous formic acid and acetonitrile
measure-name: log p

- compound: "O=C(Cn1nc(C(F)(F)F)cc1C(F)(F)F)N1CCC(c2nc(C#Cc3cccc4ccccc34)cs2)CC1 [Example I-114]"
  result: "5.03^[b]"

compound O=C(Cc1c(F)ccc(F)c1F)N1CCC(c2nc(C#Cc3cccc4ccccc34)cs2)CC1 [Example I-97] , log p observed: 4.71^[b]

Record Cc1c(Cl)c(C(F)(F)F)nn1CC(=O)N1CCC(c2nc(/C=C\c3ccc(Cl)cc3)cs2)CC1 [Example I-11] , field log p: 4.92^[b]

Query Cc1cc(C(F)(F)F)nn1CC(=O)N1CCC(c2nc(CCC3CCCCC3)cs2)CC1 [Example I-132] yields log p of 5.01^[b]

Reported log p of Cc1cc(C(F)(F)F)nn1CC(=O)N1CCC(c2nc(CCc3ccc(Cl)cc3Cl)cs2)CC1 [Example I-123] : 4.74^[b]

Lab note: measured log p of O=C(Cc1cc(Br)ccc1Br)N1CCC(c2nc(C#Cc3cccc4ccccc34)cs2)CC1 [Example I-124] was 5.47^[b]

For Cc1cc(C(F)(F)F)nn1CC(=O)N1CCC(c2nc(/C=C\Cc3ccccc3)cs2)CC1 [Example I-23] the compound record lists log p as 4.41^[b]

// log p value for O=C(Cn1ccc(C(F)(F)F)n1)N1CCC(c2nc(CCc3ccccc3)cs2)CC1 [Example I-55] : 3.57^[b]
